Method Description: Half life in rat
Type: ADME, organism-based
Conditions Used: in vivo
Quantity Measured: half-life (h)
Give bare numbers, in h.

Request: Indicate its recorded half-life; the molecule in question is CCCCCC[C@@H]1CCc2cc([C@H]3CC[C@](N)(CO)C3)ccc2C1
Response: 162

###

For each entry below, report its Drug metabolism value.
Method Description: Prodrug conversion in Lewis rat blood assessed as formation phosphate metabolite at 2 mg/kg, po after 24 hrs
Type: ADME, organism-based
Conditions Used: in vivo
Numbers only, in nM.

>>> val("CCCCSc1nc2ccc3cc([C@H]4CC[C@](N)(CO)C4)ccc3c2s1")
8.1

Working through the 3 molecules below one at a time, give Drug metabolism for each.
1. CCCCCSc1nc2c(s1)-c1ccc([C@H]3CC[C@](N)(CO)C3)cc1CC2
2. CCCCc1nc2c(s1)-c1ccc([C@H]3CC[C@](N)(CO)C3)cc1CC2
3. CCCCCCOc1nc2ccc3cc([C@H]4CC[C@](N)(CO)C4)ccc3c2s1

Response:
[10, 8.2, 250]
